- Experiment description: CCTE_Shafer_MEA_dev_per_network_spike_spike_percent: CCTE's Neural Network Formation Assay for Percent of Spikes in a Network Spike, Shafer Lab (AID 2284054)
The source made the active and inactive calls. How the source made its calls: active means hit-call score of the fitted dose curve at least 0.9, where 1 is the maximum; inactive means score below 0.9.
Thanks in advance; please answer with one of these: yes for active, no for inactive

Worked cases, answers included:
Given c1ccc2c(c1)-c1cccc3c1c-2cc1ccccc13 , state the outcome it received in this test.
no

Another: O=C(Cl)C(F)(F)C(F)(F)C(F)(F)C(=O)Cl
no

Another: CCCC(CCC)C(=O)O
yes

Another: C[C@]12C=CC(=O)C=C1CC[C@H]1[C@@H]3C[C@@H](O)[C@](O)(C(=O)CO)[C@@]3(C)C[C@H](O)[C@@]12F
yes

Another: NC(=O)N1c2ccccc2C=Cc2ccccc21
no

Another: NNC(=O)c1ccncc1
no

Another: CCOc1ccc2[nH]cc(C(=O)NCc3ccccc3)c(=O)c2n1
no

Another: NCC(F)(F)C(F)(F)C(F)(F)C(F)(F)F
no

Please find the next compound below.
Given FC(F)(F)COC(OCC(F)(F)F)OCC(F)(F)F , state the outcome it received in this test.
no
